The values you see were collected from patent US20200109188A1.

Target: HA of A/Victoria/3/75 (H3N2) virus (influenza A virus, UniProt P03435 17-567)
Sequence (P03435 17-567 limits assumed): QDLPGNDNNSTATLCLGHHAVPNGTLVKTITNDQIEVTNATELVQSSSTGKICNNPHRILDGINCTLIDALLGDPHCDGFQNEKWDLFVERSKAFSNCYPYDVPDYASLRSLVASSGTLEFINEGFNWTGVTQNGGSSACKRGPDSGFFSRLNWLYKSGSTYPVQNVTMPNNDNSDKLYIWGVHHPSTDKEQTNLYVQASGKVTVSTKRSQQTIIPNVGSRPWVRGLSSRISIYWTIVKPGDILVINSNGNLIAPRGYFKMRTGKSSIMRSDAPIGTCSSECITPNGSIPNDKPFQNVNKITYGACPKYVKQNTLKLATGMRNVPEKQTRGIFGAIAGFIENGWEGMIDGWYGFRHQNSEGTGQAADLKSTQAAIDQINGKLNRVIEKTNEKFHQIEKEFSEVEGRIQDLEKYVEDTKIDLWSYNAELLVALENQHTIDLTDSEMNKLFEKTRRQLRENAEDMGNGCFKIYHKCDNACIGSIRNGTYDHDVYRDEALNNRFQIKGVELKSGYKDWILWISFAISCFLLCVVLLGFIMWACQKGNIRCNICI
Assay: cell-based or functional assay
result.type: Neutralization IC50, H3-Vic75 (µg/mL)
The reply should be a number in µg/mL, with the unit left off.

{"binder": "Antibody 10 (antibody, V domains shown) VH: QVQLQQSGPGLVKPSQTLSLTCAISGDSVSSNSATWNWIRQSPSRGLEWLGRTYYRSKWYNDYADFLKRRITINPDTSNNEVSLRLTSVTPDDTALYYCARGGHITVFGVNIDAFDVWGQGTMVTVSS VL: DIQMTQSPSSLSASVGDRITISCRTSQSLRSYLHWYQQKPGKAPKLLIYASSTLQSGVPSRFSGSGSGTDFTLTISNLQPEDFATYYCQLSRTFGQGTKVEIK", "measure.unit": "µg/mL", "Neutralization IC50, H3-Vic75": 0.91}
{"binder": "Antibody 8 (antibody, V domains shown) VH: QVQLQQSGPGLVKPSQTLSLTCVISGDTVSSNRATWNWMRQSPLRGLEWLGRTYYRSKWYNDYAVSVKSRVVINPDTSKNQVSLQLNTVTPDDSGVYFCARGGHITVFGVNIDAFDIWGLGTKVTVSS VL: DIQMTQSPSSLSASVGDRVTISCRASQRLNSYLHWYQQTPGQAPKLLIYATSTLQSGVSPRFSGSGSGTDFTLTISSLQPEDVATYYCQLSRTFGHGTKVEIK", "measure.unit": "µg/mL", "Neutralization IC50, H3-Vic75": 3.83}
{"binder": "Antibody 5 (antibody, V domains shown) VH: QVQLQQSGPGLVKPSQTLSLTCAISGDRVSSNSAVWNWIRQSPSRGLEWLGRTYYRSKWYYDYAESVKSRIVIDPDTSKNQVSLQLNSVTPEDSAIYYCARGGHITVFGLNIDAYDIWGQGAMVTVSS VL: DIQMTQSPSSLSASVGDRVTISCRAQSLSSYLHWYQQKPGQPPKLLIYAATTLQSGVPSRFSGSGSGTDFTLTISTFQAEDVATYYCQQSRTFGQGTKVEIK", "measure.unit": "µg/mL", "Neutralization IC50, H3-Vic75": 0.57}

Consider now this further binder.
Memo: Antibody 6 (antibody, V domains shown) VH: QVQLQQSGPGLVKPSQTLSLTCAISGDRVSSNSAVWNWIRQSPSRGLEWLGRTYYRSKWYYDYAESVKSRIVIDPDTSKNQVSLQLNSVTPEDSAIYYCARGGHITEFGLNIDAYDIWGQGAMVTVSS VL: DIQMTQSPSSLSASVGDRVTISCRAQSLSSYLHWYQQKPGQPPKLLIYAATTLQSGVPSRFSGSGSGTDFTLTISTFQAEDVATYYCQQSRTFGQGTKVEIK , reported Neutralization IC50, H3-Vic75: 1.09
